Attribution: PubChem BioAssay (EPA / NIEHS)

assay protocol: CCTE_Padilla_ZF_144hpf_TERATOSCORE: (Legacy) CCTE's 144 Hour Post-fertilization zebrafish Assay Teratoscore, Padilla Lab (AID 2283679)
From the text: CCTE_Padilla_ZF_144hpf is a whole embryo, multiplexed assay. Zebrafish embryos were exposed to chemicals starting 6 hr post-fertilization for 5 days in 96-well plates. Developing larvae were examined microscopically daily for malformation and mortality.CCTE_Padilla_ZF_144hpf_TERATOSCORE is one of one assay component(s) measured or calculated from the CCTE_Padilla_ZF_144hpf assay. […]
The source made the active and inactive calls. Rule for the calls: active = hit-call score of the fitted dose curve at least 0.9, where 1 is the maximum; inactive = score below 0.9.
A correct response names exactly one class from active, inactive

c1ccc(C(O[C@@H]2CCCN(CCc3ccc4c(c3)OCO4)C2)c2ccccc2)cc1 | active
CCCC(CCC)C(=O)O | active
CCc1ccc(O)c(C(C)(C)C)c1 | active
O=C1CN(N=Cc2ccc([N+](=O)[O-])o2)C(=O)N1 | inactive
OCc1ccccc1 | inactive
CC(C)c1nnc2ccc(-c3ocnc3-c3cc(F)ccc3F)cn12 | active
CCCCC(CC)C(=O)OCCOCCOCCOC(=O)C(CC)CCCC (stereo not drawn) | active
CCCCCCCC1CCC(=O)O1 (stereo not drawn) | active
CCN(CC)C(=S)SSC(=S)N(CC)CC | active
C[C@@H](Oc1ccc(CNC(=O)c2cccnc2Oc2ccc3c(c2)OCO3)c(F)c1)C(=O)O | inactive

Give the logged outcome of this assay for the following molecule: NC(=O)N(O)[C@@H]1COc2cc(OCc3ccccc3)ccc21 inactive

Give the logged outcome of this assay for the following molecule: C=CCc1cc(S(=O)(=O)c2ccc(O)c(CC=C)c2)ccc1O active

Give the logged outcome of this assay for the following molecule: Cn1cc[nH]c1=S inactive
